Molecular target: SCD5 (Homo sapiens, UniProt Q86SK9)
Construct: host or cells: S. cerevisiae ole1Δ strain (W303 pdr1Δ pdr3Δ background), plasmid pRS316 with TDH3 promoter and CYC1 terminator
Sequence (Q86SK9 1-330): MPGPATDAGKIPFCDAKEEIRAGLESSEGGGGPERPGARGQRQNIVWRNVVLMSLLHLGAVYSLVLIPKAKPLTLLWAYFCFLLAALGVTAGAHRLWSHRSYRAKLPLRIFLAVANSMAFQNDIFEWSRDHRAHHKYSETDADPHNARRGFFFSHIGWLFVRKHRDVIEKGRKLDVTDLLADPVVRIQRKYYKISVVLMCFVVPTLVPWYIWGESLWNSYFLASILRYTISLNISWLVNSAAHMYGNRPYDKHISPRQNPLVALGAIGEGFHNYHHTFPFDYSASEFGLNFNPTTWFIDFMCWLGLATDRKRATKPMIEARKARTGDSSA
Assay: Growth inhibition of humanized yeast strain expressing SCD5 as sole desaturase
Type: cell-based
Details: humanized yeast strain expressing SCD5
outcome-measure: IC50 (µM)
Give bare numbers, in µM.

Some compounds with known IC50 results, for comparison:
{"columns": ["sample-smiles", "IC50, µM"],
 "data": [
  ["O=C(CN1Cc2ccccc2C1=O)N1CCC(c2nc(-c3ccc4c(c3)COC4)no2)CC1", 41],
  ["Cc1nn(C)c2ccc(-c3noc(C4CCN(C(=O)N5CCCCC5)CC4)n3)cc12", 36.1],
  ["O=C(C1CCN(c2nc(-c3ccccc3)no2)CC1)N1CCOCC1", 24.5]
]}

Switching to the query record.
Given the compound CC(C)n1ncc2ccc(-c3nc(C4CCN(C(=O)c5ccc(Cl)cc5)CC4)no3)cc21 , what is its reported IC50?
0.669
